TARGET_UNDER_TEST: T1, PSMA (Homo sapiens, UniProt Q04609)
T1 construct: purified extracellular domain of PSMA [residues 44-750; purchased from Caltech Protein Expression Center, CA]; purchased Caltech Protein Expression Center, CA
MEASUREMENT_DESCRIPTION: Small-angle X-ray scattering of PSMA-NB complexes
CONDITIONS: SAXS, PSMA 0.5 mg/ml
Description: The small-angle X-ray scattering (SAXS) of monomeric PSMA was measured in PBS at a final concentration of 0.5-3 mg/ml. For PSMA-NB complex samples, the concentration of PSMA was 0.5 mg/ml and the concentrations of the NBs were 0.1-0.5 mg/ml. Measurements were performed in beamline BM29 at the ESRF. […] The inventors analyzed the small-angle region (0.012<q<0.08 Å^−1) of the scattering profiles using the Guinier approximation embedded in the GNOM method. […]
READOUT_LABEL: shift of Rg of PSMA-NB complex from the original Rg of PSMA (43 Å)

[
  {
    "MOLECULE": "NB13: anti-PSMA camel nanobody (VHH, ~16 kDa) selected by phage display (protein) VHH: QVQLQESGGGSVQTGGSLRLSCAASGYTASFSWIGYFRQAPGKEREGVAVINVGVGSTYYADSVKGRFTISRDNTENTISLEMNSLKPEDTGLYYCAGSLRWSRPPNPISEDAYNYWGQGTQVTVSSAAAYPYDVPDYGS",
    "OBSERVED_VALUE": "lower Rg"
  },
  {
    "MOLECULE": "NB37: anti-PSMA camel nanobody (VHH, ~16 kDa) selected by phage display; PDB 6XXP (protein) VHH: QVQLQESGGGSVEAGGSLRLSCARSGWPYSTYSMNWFRQAPGKEREAVAGISSTMSGIIFAESKAGQFTISQDNAKNTVYLQMNNLKPEDTAIYYCAARRDYSLSSSSDDFDYWGQGTQVTVSSAAAYPYDVPDYGS",
    "OBSERVED_VALUE": "lower Rg"
  },
  {
    "MOLECULE": "NB8: anti-PSMA camel nanobody (VHH, ~16 kDa) selected by phage display; PDB 6XXO (protein) VHH: QVQLQESGGGSVQAGGSLRLSCARSGWPYSTYSMNWFRQAPGKEREAVAGISSTMSGIIFAESKAGQFTISQDNAKNTVYLQMNNLKPEDTAIYYCAARRDYSLSSSSDDFDYWGQGTQVTVSSAAAYPYDVPDYGS",
    "OBSERVED_VALUE": "lower Rg"
  }
]
